Data provenance is PubChem BioAssay (Tox21).

Assay: qHTS assay for small molecule activators of the heat shock response signaling pathway - cell viability counter screen (AID 743209); note: nearly all actives have a fitted effect of over 50% in size
Protocol Conditions: HSE-bla HeLa viability, CellTiter-Glo luminescence, 5 h; series mostly up to 62.6 µM
Results filed as inconclusive are left out. Calls of active or inactive are those of the source. Calls come from the whole dose curve; as a rule, active = well fitted cell-killing curve with a large enough effect in the repeat runs; inconclusive = weak or mixed curves, or effect the other way; inactive = no such curve, though single readings can be large or run the other way.
Labels: class 1 (active), class 0 (inactive)

Compound: COC(=O)CCS
Label Class: class 0

Compound: C/C=C/C=C/C=O
Label Class: class 0

Compound: NC1[C@H]2CN(c3nc4c(cc3F)c(=O)c(C(=O)O)cn4-c3ccc(F)cc3F)C[C@@H]12 (stereo partly drawn)
Label Class: class 0

Compound: CC(=O)c1cc2ccccc2s1
Label Class: class 0

Compound: CC(C)Nc1cccnc1N1CCN(C(=O)c2cc3cc(NS(C)(=O)=O)ccc3[nH]2)CC1
Label Class: class 0

Compound: CCCCCC#CC(=O)OC
Label Class: class 0

Compound: C[C@@H](O[C@H]1OCCN(Cc2n[nH]c(=O)[nH]2)[C@H]1c1ccc(F)cc1)c1cc(C(F)(F)F)cc(C(F)(F)F)c1
Label Class: class 1

Compound: CC(O)c1ccccc1 (stereo not drawn)
Label Class: class 0

Compound: COc1ncnc(NS(=O)(=O)c2ccc(N)cc2)c1OC
Label Class: class 0

Compound: C=C1CCC2CC1C2(C)C (stereo not drawn)
Label Class: class 0

Compound: O=[N+]([O-])c1cc(C2CCCCC2)c(O)c([N+](=O)[O-])c1
Label Class: class 0

Compound: CC1(C)S[C@@H]2[C@H](NC(=O)C(c3ccccc3)S(=O)(=O)O)C(=O)N2[C@H]1C(=O)O (stereo partly drawn)
Label Class: class 0

Compound: CCOC(C)=O
Label Class: class 0
